Cited source for all entries: ChEMBL document CHEMBL4330134

tested on: Mycobacterium tuberculosis; test: Antimycobacterial activity against Mycobacterium tuberculosis H37Rv ATCC 27294 after 4 days by microplate Alamar blue assay; assay type: functional; details: H37Rv ATCC 27294, 96 h
We begin with a simple list: items and their reported MIC.

* CCCN(CCC)C(=O)/C=C/C(=O)c1ccc2c(c1)OCO2 | > 2 µg/mL
* COc1ccc(OC)c(C(=O)/C=C/C(=O)O)c1 | > 4 µg/mL
* O=C(O)/C=C/C(=O)c1ccc(Br)cc1 | > 4 µg/mL

Ask | Observed MIC on Mycobacterium tuberculosis for "CC(C)(C)OC(=O)NCCOC(=O)/C=C/C(=O)C1CCCCC1" , please.
Reply | > 4 µg/mL

Ask | One more compound: "CC(=O)/C=C/C(=O)O"
Reply | > 4 µg/mL

Ask | One more compound: "CCCN(CCC)C(=O)/C=C/C(=O)c1ccccc1Cl"
Reply | > 2 µg/mL

###

system: Mycobacterium tuberculosis; assay: Antimycobacterial activity against Mycobacterium tuberculosis H37Rv ATCC 27294 after 4 days by microplate Alamar blue assay; assay type: functional; conditions: H37Rv ATCC 27294, 96 h
measuredAttribute: MIC

Consider the reported MIC for these compounds:
• COc1ccc(C(=O)/C=C/C(=O)OCCNC(=O)OC(C)(C)C)cc1OC = > 4 µg/mL
• O=C(O)/C=C/C(=O)c1ccc(Oc2ccccc2)cc1 = > 4 µg/mL

Ask | Observed MIC on Mycobacterium tuberculosis for "O=C(O)/C=C/C(=O)c1ccccc1" , please.
Reply | > 4 µg/mL

###

We begin with a simple list: items and their reported MIC.
system: Mycobacterium tuberculosis; assay: Antimycobacterial activity against Mycobacterium tuberculosis H37Rv ATCC 27294 after 4 days by microplate Alamar blue assay; format: functional; details: H37Rv ATCC 27294, 96 h

• CC(C)(C)OC(=O)NCCOC(=O)/C=C/C(=O)c1ccc(Oc2ccccc2)cc1 = > 4 µg/mL

Ask | I am curious: what MIC value has been reported for "CCCN(CCC)C(=O)/C=C/C(=O)c1cccc(C(F)(F)F)c1" ?
Reply | > 2 µg/mL

Ask | One more compound: "COc1cccc(C(=O)/C=C/C(=O)OCCNC(=O)OC(C)(C)C)c1"
Reply | > 4 µg/mL

Ask | One more compound: "Cc1ccc(C(=O)/C=C/C(=O)O)cc1"
Reply | > 4 µg/mL

Ask | One more compound: "CCOc1ccc(C(=O)/C=C/C(=O)O)cc1"
Reply | > 4 µg/mL

Ask | One more compound: "CCN(C)C(=O)/C=C/C(=O)c1ccc(Cl)cc1Cl"
Reply | > 2 µg/mL

###

We begin with a simple list: items and their reported MIC.
tested on: Mycobacterium tuberculosis; assay: Antimycobacterial activity against Mycobacterium tuberculosis H37Rv ATCC 27294 after 4 days by microplate Alamar blue assay; assay type: functional; details: H37Rv ATCC 27294, 96 h
Entry rule: numbers only, all in µg/mL.

Ask | Observed MIC on Mycobacterium tuberculosis for "CCCN(CCC)C(=O)/C=C/C(=O)c1ccc(Cl)c(Cl)c1" , please.
Reply | 0.88

Ask | One more molecule: "CN(C)C(=O)/C=C/C(=O)c1cccc(Cl)c1"
Reply | 0.89

Ask | One more molecule: "COc1cccc(C(=O)/C=C/C(=O)OC(C)C)c1"
Reply | 0.92
